Data origin, for the record: PubChem BioAssay AID330

# Test system: P388 leukemia ip, CD2F1 mice, survival T/C
# PROCEDURE SUMMARY: NCI In Vivo Anticancer Drug Screen. Data for tumor model P388 Leukemia (intraperitoneal) in CD2F1 (CDF1) mice
# ASSAY CONDITIONS: endpoint: median survival time; dose: 200.0 mg/kg/injection; schedule: Q01DX009 (ip); vehicle: saline with Tween-80; higher = longer survival
# Method: The antitumor activity of compounds was measured in mice bearing transplantable tumors. Survival or tumor size were measured and the results are expressed as the measurement made in the treated group (T) divided by the measurement made in the vehicle treated control group (C). The tumor model used in this assay is P388 Leukemia (intraperitoneal) in CD2F1 (CDF1) mice
Toxic doses and inconclusive results are not listed.

COMPOUND: [O-]/[N+](=C\c1ccccc1)CC1(O)CCCCC1
T/C: 99 % of control
--
COMPOUND: CCOC(=O)c1nc2ccccc2c(=O)[nH]1
T/C: 108 % of control
--
COMPOUND: CCn1c2ccccc2c2cc(N=Cc3cccc([N+](=O)[O-])c3)ccc21
T/C: 88 % of control
--
COMPOUND: Cc1ccc(O)c(C(c2cc(C)ccc2O)c2ccccc2Cl)c1
T/C: 103 % of control
--
COMPOUND: COC(c1ccc(OCc2ccccc2)cc1)C(Br)C(=O)c1ccc(Cl)cc1Cl (stereo not given)
T/C: 88 % of control
--
COMPOUND: O=C(NCCCl)OCC(Cl)(Cl)Cl
T/C: 98 % of control
--
COMPOUND: O=[n+]1c2c(n([O-])c3ccccc31)CCC2
T/C: 108 % of control
--
COMPOUND: COC(=O)/C=C1\C(=O)OC2(C)CCCCC12 (stereo not given)
T/C: 100 % of control
--
COMPOUND: N#CN=CN(Cc1ccccc1)Cc1ccccc1
T/C: 93 % of control
--
COMPOUND: O=C(O)CC(=O)C(C(=O)O)C(CCc1ccccc1)C(C(=O)O)C(=O)CC(=O)O (stereo not given)
T/C: 90 % of control
--
COMPOUND: O=C(/C=C/c1ccccc1)NOC(=O)/C=C/c1ccccc1
T/C: 115 % of control
--
COMPOUND: CCOC(=O)N1CCN(CCCCCCOc2ccc(C3CCCCC3)cc2)CC1
T/C: 123 % of control
--
COMPOUND: COc1ccc(Oc2c(OC)cc(NCCCCCN3C(=O)c4ccccc4C3=O)c3ncccc23)cc1
T/C: 89 % of control
--
COMPOUND: Clc1ccc2sc(-c3ccccc3)nc2c1
T/C: 100 % of control
--
COMPOUND: O=C(/C=C/c1ccccc1Cl)c1ccccc1
T/C: 114 % of control
--
COMPOUND: CC(=O)N(O)c1ccc(S(N)(=O)=O)cc1
T/C: 98 % of control
--
COMPOUND: OC1CC(OCc2ccccc2)CC1O (stereo not given)
T/C: 103 % of control
--
COMPOUND: CCN(CC)P(=O)(c1cccn1C)c1cccn1C
T/C: 97 % of control
--
COMPOUND: O=C(/C=C/c1ccccc1)n1nnc2cc(Cl)c(Cl)cc21
T/C: 96 % of control
--
COMPOUND: CCOC(=O)c1ccc(NC(=O)Nc2nc3c(Cl)cccc3s2)cc1
T/C: 87 % of control
